# Test system: P. aeruginosa PAO1
# Design: unit not given beside the values
# particulars: in combination with Fosfomycin
Positions of bridges follow the written chain, without caps; N, C: chain ends. Non-standard residues stand in square brackets, D forms with d. Residues, ends and D or L forms follow the SMILES beside them. *: point of attachment. Lauroyl = CCCCCCCCCCCC(=O)*; Dab = NCC[C@H](N)C(=O)O; Butyryl = CCCC(=O)*
property.label: MIC of adjuvant in combo

Challenge: Requested read-out: MIC of adjuvant in combo. Entry: CCCCCCCCCCCC(=O)NCC[C@H](NC(=O)CCCCCCCCCCC)C(=O)N[C@H](C(=O)N[C@@H](CCN)C(=O)N[C@H]1CCNC(=O)[C@H]([C@@H](C)O)NC(=O)[C@H](CCN)NC(=O)[C@H](CCN)NC(=O)[C@H](CC(C)C)NC(=O)[C@@H](Cc2ccccc2)NC(=O)[C@H](CCN)NC1=O)[C@@H](C)O [Compound 3, Didodecanoic Acid (Di-C12) Polymyxin] (Lauroyl-[Dab](Lauroyl)T[Dab][Dab][Dab][dF]L[Dab][Dab]T; lactam 4-C)
Response given: (8)

Challenge: Thanks! And CC(C)C[C@@H]1NC(=O)[C@@H](Cc2ccccc2)NC(=O)[C@H](CCN)NC(=O)[C@@H](NC(=O)[C@H](CCN)NC(=O)[C@@H](N)[C@@H](C)O)CCNC(=O)[C@H]([C@@H](C)O)NC(=O)[C@H](CCN)NC(=O)[C@H](CCN)NC1=O [PMBN, polymyxin B nonapeptide, reference compound] (H-T[Dab][Dab][Dab][dF]L[Dab][Dab]T; lactam 3-C (inferred)) ?
Response given: (32)

Challenge: Thanks! And CCCC(=O)NCC[C@H](NC(=O)CCC)C(=O)N[C@H](C(=O)N[C@@H](CCN)C(=O)N[C@H]1CCNC(=O)[C@H]([C@@H](C)O)NC(=O)[C@H](CCN)NC(=O)[C@H](CCN)NC(=O)[C@H](CC(C)C)NC(=O)[C@@H](Cc2ccccc2)NC(=O)[C@H](CCN)NC1=O)[C@@H](C)O [Compound 1, Dibutyric Acid (Di-C4) Polymyxin] (Butyryl-[Dab](Butyryl)T[Dab][Dab][Dab][dF]L[Dab][Dab]T; lactam 4-C) ?
Response given: (16)

----------
# Tested on: P. aeruginosa PAO1
# Parameters: unit not given beside the values
# particulars: in combination with Rifampicin
Positions of bridges follow the written chain, without caps; N, C: chain ends. Non-standard residues stand in square brackets, D forms with d. Residues, ends and D or L forms follow the SMILES beside them. *: point of attachment. Benzoyl(4-Ph) = O=C(c1ccc(-c2ccccc2)cc1)*; Octanoyl = CCCCCCCC(=O)*; Dab = NCC[C@H](N)C(=O)O
property.label: MIC of adjuvant in combo

Challenge: Requested read-out: MIC of adjuvant in combo. Entry: CCCCCCCC(=O)NCC[C@H](NC(=O)CCCCCCC)C(=O)N[C@H](C(=O)N[C@@H](CCN)C(=O)N[C@H]1CCNC(=O)[C@H]([C@@H](C)O)NC(=O)[C@H](CCN)NC(=O)[C@H](CCN)NC(=O)[C@H](CC(C)C)NC(=O)[C@@H](Cc2ccccc2)NC(=O)[C@H](CCN)NC1=O)[C@@H](C)O [Compound 2, Dioctanoic Acid (Di-C8) Polymyxin] (Octanoyl-[Dab](Octanoyl)T[Dab][Dab][Dab][dF]L[Dab][Dab]T; lactam 4-C)
Response given: (1)

Challenge: Thanks! And CC(C)C[C@@H]1NC(=O)[C@@H](Cc2ccccc2)NC(=O)[C@H](CCN)NC(=O)[C@@H](NC(=O)[C@H](CCN)NC(=O)[C@@H](NC(=O)[C@H](CCNC(=O)c2ccc(-c3ccccc3)cc2)NC(=O)c2ccc(-c3ccccc3)cc2)[C@@H](C)O)CCNC(=O)[C@H]([C@@H](C)O)NC(=O)[C@H](CCN)NC(=O)[C@H](CCN)NC1=O [Compound 5] ({Benzoyl(4-Ph)}-[Dab](Benzoyl(4-Ph))T[Dab][Dab][Dab][dF]L[Dab][Dab]T; lactam 4-C) ?
Response given: (4)
